Provide the reported reduction of seed germination of each item.
# Tested on: Arabidopsis thaliana Col-0 seeds
# procedure.details: Seed germination assay
# Format: in vivo
# condition.label: 1 μM in germination medium
Give bare numbers, in %.

See these solved cases before continuing.
Value of measured reduction of seed germination for the entry CCSCC=C(C)C#CC1(O)C(C)CC(=O)CC1(C)C (racemic) [Compound 13] : 26

Value of measured reduction of seed germination for the entry CC1=CC(=O)CC(C)(C)C1(O)/C=C/C(C)=C\C(=O)O (single isomer, unassigned; (+)) [(+)-ABA 1, Abscisic acid, reference compound] : 61

Value of measured reduction of seed germination for the entry C/C(C#C[C@@]12O[C@]1(C)C[C@@H](O)CC2(C)C)=C/CSc1ccccc1 [Compound 17] : 26

Shifting focus to the compound that follows.
Value of measured reduction of seed germination for the entry C/C(C#C[C@@]12O[C@]1(C)C[C@@H](O)CC2(C)C)=C/CNc1ccccc1 [Compound 18] : 50

From: patent US8283481B2
